Biological target: UniProt:P03372
Sequence (P03372 whole entry): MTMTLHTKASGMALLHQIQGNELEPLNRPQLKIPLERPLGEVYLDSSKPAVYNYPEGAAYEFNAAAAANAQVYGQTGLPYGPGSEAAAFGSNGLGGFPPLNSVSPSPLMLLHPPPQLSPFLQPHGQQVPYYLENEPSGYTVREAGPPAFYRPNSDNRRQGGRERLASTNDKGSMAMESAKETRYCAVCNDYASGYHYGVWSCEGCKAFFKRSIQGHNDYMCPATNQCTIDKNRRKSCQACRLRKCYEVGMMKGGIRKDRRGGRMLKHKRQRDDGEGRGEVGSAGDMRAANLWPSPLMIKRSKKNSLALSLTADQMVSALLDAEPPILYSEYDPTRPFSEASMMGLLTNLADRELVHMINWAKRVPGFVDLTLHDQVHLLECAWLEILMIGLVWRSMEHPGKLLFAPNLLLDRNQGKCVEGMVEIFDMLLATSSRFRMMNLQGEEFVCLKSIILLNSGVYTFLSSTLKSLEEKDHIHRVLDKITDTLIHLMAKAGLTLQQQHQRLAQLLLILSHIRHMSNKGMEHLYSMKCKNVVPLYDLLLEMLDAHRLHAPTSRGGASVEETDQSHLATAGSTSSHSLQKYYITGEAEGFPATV
Assay: Agonist activity at ERalpha in human MCF7 cells assessed as increase in PS2 expression at 20 uM incubated for 2 hrs measured after 14 hrs by qPCR analysis relative to E2
Format: functional, cell-based
Active and inactive are the calls of the source. No cut-off for these calls is given here.

| compound | Activity |
| --- | --- |
| CCC(C)c1cc(-c2ccc(OCC(=O)O)c(C(C)CC)c2)ccc1OCCN(C)C (stereo not given) | inactive |
| CN(C)CCOc1ccc(-c2ccc(OCC(=O)O)cc2)cc1 | > 20% |
| CN(C)CCOc1ccc(-c2ccc(OCC(=O)O)c(C(C)(C)C)c2)cc1C(C)(C)C | > 20% |
| CN(C)CCOc1ccc(-c2ccc(OCC(=O)O)c(Cc3ccccc3)c2)cc1Cc1ccccc1 | inactive |
| CC(C)c1cc(-c2ccc(OCC(=O)O)c(C(C)C)c2)ccc1OCCN(C)C | inactive |
